Just for reference, paper PMC11528066 is where these values come from.

test protocol: Biodistribution (γ-counter)
Format: in vivo, BALB/C nude mice
condition notes: male, BALB/C nude, mouse, small intestine, iv, total radioactivity, 90 min p.i.; mean ± SD, n = 3; read-out: Small intestine uptake
Peptide text beside a SMILES is read from it. * marks the point of attachment. NOTA = O=C(O)CN1CCN(CC(=O)O)CCN(CC(=O)*)CC1; AEEEA = NCCOCCOCCOCC(=O)O
result type: tissue uptake at 1.5 h (%ID/g)
Kindly answer with a numeric value in %ID/g, unit omitted.

Look up tissue uptake at 1.5 h: CC[C@H](C)[C@H](NC(=O)[C@H](CCCNC(=N)N)NC(=O)CNC(=O)[C@H](CCC(=O)O)NC(=O)[C@H](CC(N)=O)NC(=O)[C@H](Cc1ccc(O)cc1)NC(=O)[C@H](CCCNC(=N)N)NC(=O)[C@H](Cc1ccc(O)cc1)NC(=O)[C@H](Cc1c[nH]cn1)NC(=O)COCCOCCOCCNC(=O)CN1CCN(CC(=O)O)CCN(CC(=O)O)CC1)C(=O)N[C@@H](CCCNC(=N)N)C(=O)N[C@@H](CC(N)=O)C(=O)O [[^68Ga]Ga-HN11-1, metal not drawn] ({NOTA-AEEEA}-HYRYNEGRIRN-OH)
0.16

* * *

test protocol: Biodistribution (γ-counter)
Type: in vivo, BALB/C nude mice
condition notes: male, BALB/C nude, mouse, small intestine, iv, total radioactivity, 60 min p.i.; mean ± SD, n = 3; read-out: Small intestine uptake
Peptide text beside a SMILES is read from it. * marks the point of attachment. NOTA = O=C(O)CN1CCN(CC(=O)O)CCN(CC(=O)*)CC1; AEEEA = NCCOCCOCCOCC(=O)O
result type: tissue uptake at 1 h (%ID/g)
Kindly answer with a numeric value in %ID/g, unit omitted.

Look up tissue uptake at 1 h: CC[C@H](C)[C@H](NC(=O)[C@H](CCCNC(=N)N)NC(=O)CNC(=O)[C@H](CCC(=O)O)NC(=O)[C@H](CC(N)=O)NC(=O)[C@H](Cc1ccc(O)cc1)NC(=O)[C@H](CCCNC(=N)N)NC(=O)[C@H](Cc1ccc(O)cc1)NC(=O)[C@H](Cc1c[nH]cn1)NC(=O)COCCOCCOCCNC(=O)CN1CCN(CC(=O)O)CCN(CC(=O)O)CC1)C(=O)N[C@@H](CCCNC(=N)N)C(=O)N[C@@H](CC(N)=O)C(=O)O [[^68Ga]Ga-HN11-1, metal not drawn] ({NOTA-AEEEA}-HYRYNEGRIRN-OH)
0.21

* * *

test protocol: Biodistribution (γ-counter)
Type: in vivo, BALB/C nude mice
condition notes: male, BALB/C nude, mouse, tumor and muscle, iv, with HN11-1 (block; amount not stated), total radioactivity; 60 min HN11-1 Block; mean ± SD, n = 3; read-out: Tumor/Muscle ratio
Peptide text beside a SMILES is read from it. * marks the point of attachment. NOTA = O=C(O)CN1CCN(CC(=O)O)CCN(CC(=O)*)CC1; AEEEA = NCCOCCOCCOCC(=O)O
result type: tissue to tissue ratio at 1 h
Answer with a number only.

Look up tissue to tissue ratio at 1 h: CC[C@H](C)[C@H](NC(=O)[C@H](CCCNC(=N)N)NC(=O)CNC(=O)[C@H](CCC(=O)O)NC(=O)[C@H](CC(N)=O)NC(=O)[C@H](Cc1ccc(O)cc1)NC(=O)[C@H](CCCNC(=N)N)NC(=O)[C@H](Cc1ccc(O)cc1)NC(=O)[C@H](Cc1c[nH]cn1)NC(=O)COCCOCCOCCNC(=O)CN1CCN(CC(=O)O)CCN(CC(=O)O)CC1)C(=O)N[C@@H](CCCNC(=N)N)C(=O)N[C@@H](CC(N)=O)C(=O)O [[^68Ga]Ga-HN11-1, metal not drawn] ({NOTA-AEEEA}-HYRYNEGRIRN-OH)
1.11

* * *

test protocol: Biodistribution (γ-counter)
Assay type: in vivo, BALB/C nude mice
condition notes: male, BALB/C nude, mouse, tumor, iv, total radioactivity, 90 min p.i.; mean ± SD, n = 3; read-out: Tumor uptake
Peptide text beside a SMILES is read from it. * marks the point of attachment. NOTA = O=C(O)CN1CCN(CC(=O)O)CCN(CC(=O)*)CC1; AEEEA = NCCOCCOCCOCC(=O)O
result type: tissue uptake at 1.5 h (%ID/g)
Kindly answer with a numeric value in %ID/g, unit omitted.

Look up tissue uptake at 1.5 h: CC[C@H](C)[C@H](NC(=O)[C@H](CCCNC(=N)N)NC(=O)CNC(=O)[C@H](CCC(=O)O)NC(=O)[C@H](CC(N)=O)NC(=O)[C@H](Cc1ccc(O)cc1)NC(=O)[C@H](CCCNC(=N)N)NC(=O)[C@H](Cc1ccc(O)cc1)NC(=O)[C@H](Cc1c[nH]cn1)NC(=O)COCCOCCOCCNC(=O)CN1CCN(CC(=O)O)CCN(CC(=O)O)CC1)C(=O)N[C@@H](CCCNC(=N)N)C(=O)N[C@@H](CC(N)=O)C(=O)O [[^68Ga]Ga-HN11-1, metal not drawn] ({NOTA-AEEEA}-HYRYNEGRIRN-OH)
0.39

* * *

test protocol: Biodistribution (γ-counter)
Type: in vivo, BALB/C nude mice
condition notes: male, BALB/C nude, mouse, tumor and heart, iv, total radioactivity; 90 min p.i.; mean ± SD, n = 3; read-out: Tumor/Heart ratio
Peptide text beside a SMILES is read from it. * marks the point of attachment. NOTA = O=C(O)CN1CCN(CC(=O)O)CCN(CC(=O)*)CC1; AEEEA = NCCOCCOCCOCC(=O)O
result type: tissue to tissue ratio at 1.5 h
Answer with a number only.

Look up tissue to tissue ratio at 1.5 h: CC[C@H](C)[C@H](NC(=O)[C@H](CCCNC(=N)N)NC(=O)CNC(=O)[C@H](CCC(=O)O)NC(=O)[C@H](CC(N)=O)NC(=O)[C@H](Cc1ccc(O)cc1)NC(=O)[C@H](CCCNC(=N)N)NC(=O)[C@H](Cc1ccc(O)cc1)NC(=O)[C@H](Cc1c[nH]cn1)NC(=O)COCCOCCOCCNC(=O)CN1CCN(CC(=O)O)CCN(CC(=O)O)CC1)C(=O)N[C@@H](CCCNC(=N)N)C(=O)N[C@@H](CC(N)=O)C(=O)O [[^68Ga]Ga-HN11-1, metal not drawn] ({NOTA-AEEEA}-HYRYNEGRIRN-OH)
3

* * *

test protocol: Biodistribution (γ-counter)
Type: in vivo, BALB/C nude mice
condition notes: male, BALB/C nude, mouse, bone, iv, total radioactivity, 60 min p.i.; mean ± SD, n = 3; read-out: Bone uptake
Peptide text beside a SMILES is read from it. * marks the point of attachment. NOTA = O=C(O)CN1CCN(CC(=O)O)CCN(CC(=O)*)CC1; AEEEA = NCCOCCOCCOCC(=O)O
result type: tissue uptake at 1 h (%ID/g)
Kindly answer with a numeric value in %ID/g, unit omitted.

Look up tissue uptake at 1 h: CC[C@H](C)[C@H](NC(=O)[C@H](CCCNC(=N)N)NC(=O)CNC(=O)[C@H](CCC(=O)O)NC(=O)[C@H](CC(N)=O)NC(=O)[C@H](Cc1ccc(O)cc1)NC(=O)[C@H](CCCNC(=N)N)NC(=O)[C@H](Cc1ccc(O)cc1)NC(=O)[C@H](Cc1c[nH]cn1)NC(=O)COCCOCCOCCNC(=O)CN1CCN(CC(=O)O)CCN(CC(=O)O)CC1)C(=O)N[C@@H](CCCNC(=N)N)C(=O)N[C@@H](CC(N)=O)C(=O)O [[^68Ga]Ga-HN11-1, metal not drawn] ({NOTA-AEEEA}-HYRYNEGRIRN-OH)
0.41

* * *

test protocol: Biodistribution (γ-counter)
Format: in vivo, BALB/C nude mice
condition notes: male, BALB/C nude, mouse, bone, iv, total radioactivity, 90 min p.i.; mean ± SD, n = 3; read-out: Bone uptake
Peptide text beside a SMILES is read from it. * marks the point of attachment. NOTA = O=C(O)CN1CCN(CC(=O)O)CCN(CC(=O)*)CC1; AEEEA = NCCOCCOCCOCC(=O)O
result type: tissue uptake at 1.5 h (%ID/g)
Kindly answer with a numeric value in %ID/g, unit omitted.

Look up tissue uptake at 1.5 h: CC[C@H](C)[C@H](NC(=O)[C@H](CCCNC(=N)N)NC(=O)CNC(=O)[C@H](CCC(=O)O)NC(=O)[C@H](CC(N)=O)NC(=O)[C@H](Cc1ccc(O)cc1)NC(=O)[C@H](CCCNC(=N)N)NC(=O)[C@H](Cc1ccc(O)cc1)NC(=O)[C@H](Cc1c[nH]cn1)NC(=O)COCCOCCOCCNC(=O)CN1CCN(CC(=O)O)CCN(CC(=O)O)CC1)C(=O)N[C@@H](CCCNC(=N)N)C(=O)N[C@@H](CC(N)=O)C(=O)O [[^68Ga]Ga-HN11-1, metal not drawn] ({NOTA-AEEEA}-HYRYNEGRIRN-OH)
0.31
